Reported IC50 values for a set of molecules
# STUDY SYSTEM: GATA4/NKX2-5 (Mus musculus, UniProt P42582+Q08369)
# Sequence (Q08369 whole entry): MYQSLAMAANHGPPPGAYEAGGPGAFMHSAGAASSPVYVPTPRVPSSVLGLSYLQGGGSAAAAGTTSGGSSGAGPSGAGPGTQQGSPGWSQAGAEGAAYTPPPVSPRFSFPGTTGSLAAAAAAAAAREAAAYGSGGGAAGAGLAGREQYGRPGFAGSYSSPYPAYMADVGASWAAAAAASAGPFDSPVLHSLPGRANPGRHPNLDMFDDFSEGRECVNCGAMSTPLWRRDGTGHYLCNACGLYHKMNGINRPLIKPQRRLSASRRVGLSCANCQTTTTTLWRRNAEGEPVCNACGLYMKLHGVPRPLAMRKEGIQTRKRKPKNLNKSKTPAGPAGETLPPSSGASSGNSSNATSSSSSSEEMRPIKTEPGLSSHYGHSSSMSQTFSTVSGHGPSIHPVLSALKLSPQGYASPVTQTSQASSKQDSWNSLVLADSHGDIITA
# Sequence (P42582 whole entry): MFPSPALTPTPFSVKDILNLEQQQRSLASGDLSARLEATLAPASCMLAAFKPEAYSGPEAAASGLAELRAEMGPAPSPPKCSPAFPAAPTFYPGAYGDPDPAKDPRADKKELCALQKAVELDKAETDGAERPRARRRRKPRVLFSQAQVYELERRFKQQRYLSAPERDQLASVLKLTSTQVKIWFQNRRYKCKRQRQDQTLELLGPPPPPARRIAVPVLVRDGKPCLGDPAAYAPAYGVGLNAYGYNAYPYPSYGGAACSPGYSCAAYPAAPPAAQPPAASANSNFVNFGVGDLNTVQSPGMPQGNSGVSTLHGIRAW
# METHOD NOTES: Inhibition of mouse GATA4/NKX2-5 transcriptional synergy expressed in African green monkey COS-1 cells measured after 30 hrs by dual luciferase reporter gene assay
Field: numeric (µM). Do not append units.

Examples with answers:
| STRUCTURE SMILES STRING | OUTPUT UNIT | IC50 |
| --- | --- | --- |
| COc1cccc(/C=N/n2c(S)nnc2-c2ccccc2)c1OC | µM | 8 |
| Cc1onc(-c2ccccc2)c1C(=O)Nc1ccc(C(C)C)cc1 | µM | 16 |

Q: Give recorded IC50. "CCCOc1ccc(/C=N/n2c(S)nnc2-c2ccncc2)cc1"
Result: 10

Q: Give recorded IC50. "Cc1onc(-c2ccccc2)c1C(=O)Nc1ccc(S(=O)(=O)Nc2ncccn2)cc1"
Result: 28

Q: Give recorded IC50. "Cc1onc(-c2ccccc2)c1C(=O)Nc1ccc2c(c1)OC1(CCCC1)O2"
Result: 23
